Each recorded value in this set is attributed to patent US20240208992A1.

Recorded Emax by entry
# subject_of_test: human F508del-CFTR (Homo sapiens, UniProt P13569, DEL508-508)
# Sequence (P13569 with tags, fused parts or gaps DEL508-508): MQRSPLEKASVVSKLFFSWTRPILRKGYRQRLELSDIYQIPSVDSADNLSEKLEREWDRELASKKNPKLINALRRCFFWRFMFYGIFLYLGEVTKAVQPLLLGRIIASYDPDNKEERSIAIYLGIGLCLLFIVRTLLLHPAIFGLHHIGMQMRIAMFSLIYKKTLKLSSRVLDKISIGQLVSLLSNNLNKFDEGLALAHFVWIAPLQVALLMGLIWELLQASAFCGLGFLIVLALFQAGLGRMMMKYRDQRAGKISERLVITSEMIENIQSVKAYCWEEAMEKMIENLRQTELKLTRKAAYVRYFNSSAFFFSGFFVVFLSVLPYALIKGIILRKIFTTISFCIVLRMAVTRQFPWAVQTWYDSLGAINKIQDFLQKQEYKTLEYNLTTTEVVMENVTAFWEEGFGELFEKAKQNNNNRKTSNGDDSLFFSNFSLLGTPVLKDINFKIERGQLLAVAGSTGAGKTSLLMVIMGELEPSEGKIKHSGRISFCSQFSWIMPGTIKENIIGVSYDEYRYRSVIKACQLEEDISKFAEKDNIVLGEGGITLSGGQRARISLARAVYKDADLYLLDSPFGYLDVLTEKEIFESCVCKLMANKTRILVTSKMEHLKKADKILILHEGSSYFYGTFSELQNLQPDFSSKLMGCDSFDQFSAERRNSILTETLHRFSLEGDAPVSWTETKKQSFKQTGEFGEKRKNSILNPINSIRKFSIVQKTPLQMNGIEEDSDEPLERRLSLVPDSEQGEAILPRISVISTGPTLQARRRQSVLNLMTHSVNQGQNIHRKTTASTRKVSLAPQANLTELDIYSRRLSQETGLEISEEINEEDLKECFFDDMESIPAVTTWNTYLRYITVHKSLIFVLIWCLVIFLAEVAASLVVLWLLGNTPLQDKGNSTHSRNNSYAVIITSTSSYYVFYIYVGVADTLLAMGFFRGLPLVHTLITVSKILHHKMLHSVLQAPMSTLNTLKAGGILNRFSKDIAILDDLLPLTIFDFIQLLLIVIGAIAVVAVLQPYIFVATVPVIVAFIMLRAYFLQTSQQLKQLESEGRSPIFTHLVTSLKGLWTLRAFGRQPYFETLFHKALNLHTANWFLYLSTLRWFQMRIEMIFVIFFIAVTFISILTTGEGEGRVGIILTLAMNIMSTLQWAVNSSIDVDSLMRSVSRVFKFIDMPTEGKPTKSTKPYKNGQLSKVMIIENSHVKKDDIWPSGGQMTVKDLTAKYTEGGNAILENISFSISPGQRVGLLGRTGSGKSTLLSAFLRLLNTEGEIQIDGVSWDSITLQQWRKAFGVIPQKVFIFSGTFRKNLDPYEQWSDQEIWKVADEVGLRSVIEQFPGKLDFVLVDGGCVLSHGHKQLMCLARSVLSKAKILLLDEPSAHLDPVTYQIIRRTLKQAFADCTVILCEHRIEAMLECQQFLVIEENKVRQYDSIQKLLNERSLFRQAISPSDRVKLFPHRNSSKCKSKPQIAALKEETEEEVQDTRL
# method: F508del-CFTR cell surface expression (corrector activity), DiscoveRx ß-galactosidase complementation chemiluminescence assay in recombinant U2OS cell line;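 also: U2OS cells co-expressing ProLink-tagged F508del-CFTR and a membrane-anchored enzyme acceptor, where more surface CFTR restores β-galactosidase activity measured by chemiluminescence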
# assay_context: U2OS, in relation to the Emax of the corrector lumacaftor (=100%); U2OS cell line, 16h compound incubation; arithmetic mean values
Reply with the number and its unit after it.

| sample_smiles | parameter_measured | reported_value |
| --- | --- | --- |
| CCc1nc(CCNC(=O)[C@@H]2CC(=O)N(C)[C@@H](CC(C)C)C(=O)N3CCCC[C@@H]3C(=O)N[C@H](Cc3ccccc3)COc3cnc4ccccc4c3C(=O)N2)no1 | Emax | 296% |
| COc1cccc(-c2noc(CCNC(=O)[C@@H]3CC(=O)N(C)[C@@H](CC(C)C)C(=O)N4CCOC[C@@H]4C(=O)N[C@H](Cc4ccccc4)COc4cnc5ccccc5c4C(=O)N3)n2)c1 | Emax | 264% |
| COc1cc2c(cc1OC)C(=O)N[C@H](C(=O)NCCc1ccc3c(c1)OCO3)CC(=O)N(C)[C@@H](CC(C)C)C(=O)N(C[C@@H]1CCCCO1)CC(=O)N[C@H](Cc1ccccc1)CO2 | Emax | 116% |
| COc1cccc(CCNC(=O)[C@@H]2CC(=O)N(C)[C@@H](CC(C)C)C(=O)N(C)CC(=O)N[C@H](Cc3ccccc3)COc3cc(OC)c(OC)cc3C(=O)N2)c1 | Emax | 202% |
| [2H]C([2H])([2H])Oc1cccc(CCNC(=O)[C@@H]2CC(=O)N(C)[C@@H](CC(C)C)C(=O)N(CCC3CCCCC3)CC(=O)N[C@H](Cc3ccccc3)COc3cnc4ccccc4c3C(=O)N2)c1 | Emax | 343% |

Prompt: Give the reported Emax for this compound. CC(C)C[C@H]1C(=O)N(CC[C@H]2CCCCO2)CC(=O)N[C@H](Cc2ccccc2)COc2ccc3ccccc3c2C(=O)N[C@H](C(=O)NCCc2ccc3c(c2)OCO3)CC(=O)N1C
Response: 230%

Prompt: Give the reported Emax for this compound. Cc1noc(C)c1CCNC(=O)[C@@H]1CC(=O)N(C)[C@@H](CC(C)C)C(=O)N2CCOC[C@@H]2C(=O)N[C@H](Cc2ccccc2)COc2ccc3ccccc3c2C(=O)N1
Response: 137%

Prompt: Give the reported Emax for this compound. COc1cccc(CCNC(=O)[C@@H]2CC(=O)N(C)[C@@H](CC(C)C)C(=O)N3CCN(C(=O)OCC(Cl)(Cl)Cl)C[C@@H]3C(=O)N[C@H](Cc3ccccc3)COc3ccc4ccccc4c3C(=O)N2)c1
Response: 243%

Prompt: Give the reported Emax for this compound. COc1cc(OC)c2c(c1)OC[C@@H](Cc1ccccc1)NC(=O)CN(CCC1CCCCC1)C(=O)[C@H](CC(C)C)N(C)C(=O)C[C@@H](C(=O)NCCc1ccc3c(c1)OCO3)NC2=O
Response: 299%

Prompt: Give the reported Emax for this compound. COc1cccc2c1C(=O)N[C@H](C(=O)NCCc1ccc3c(c1)OCCCC3)CC(=O)N(C)[C@@H](CC(C)C)C(=O)N1CCOC[C@@H]1C(=O)N[C@H](Cc1ccccc1)CO2
Response: 243%
